Measured values drawn from patent US9938322B2 for this set.

So I've got a bunch of compounds here, and I need their Hemolysis at 100 μg/ml values.
System: human red blood cells (hRBC)
Test Details: Hemolysis of human red blood cells
Format: cell-based
Test Settings: red cells of human, 1 h, 100
Where a SMILES comes first, the peptide text is derived from it. [ ]: non-standard residue; d: D form. Pro(3S-OH) = O=C(O)[C@H]1NCC[C@@H]1O; Chg = N[C@H](C(=O)O)C1CCCCC1; Tle = CC(C)(C)[C@H](N)C(=O)O; dDab = NCC[C@@H](N)C(=O)O; Orn = NCCC[C@H](N)C(=O)O; Dab = NCC[C@H](N)C(=O)O; Nva = CCC[C@H](N)C(=O)O
Answers are plain numbers, in %.

Some compounds with known Hemolysis at 100 μg/ml results, for comparison:
Compound	Measure Unit	Hemolysis at 100 μg/ml
CC(C)C[C@@H]1NC(=O)[C@@H]2CCCN2C(=O)[C@H]2CCCN2C(=O)[C@H](CO)NC(=O)[C@H](C)NC(=O)[C@H](C(C)(C)C)NC(=O)[C@H](CCN)NC(=O)[C@H](Cc2c[nH]c3ccccc23)NC(=O)[C@H](CCN)NC(=O)[C@H](CCN)NC(=O)[C@H](CCCN)NC(=O)[C@H](CCN)NC(=O)[C@H](Cc2ccc(O)cc2)NC(=O)[C@H](CO)NC1=O [compound 24] (cyclo(LSY[Dab][Orn][Dab][Dab]W[Dab][Tle]AS[dP]P))	%	1
CC(C)C[C@@H]1NC(=O)[C@@H]2CCCN2C(=O)[C@H]2CCCN2C(=O)[C@H](CO)NC(=O)[C@H](CC(=O)O)NC(=O)[C@H](C(C)(C)C)NC(=O)[C@H](CCN)NC(=O)[C@H](Cc2c[nH]c3ccccc23)NC(=O)[C@H](CCN)NC(=O)[C@@H](CCN)NC(=O)[C@H](CCCN)NC(=O)[C@H](CCN)NC(=O)[C@H](Cc2ccc(O)cc2)NC(=O)[C@H](CCN)NC1=O [compound 159] (cyclo(L[Dab]Y[Dab][Orn][dDab][Dab]W[Dab][Tle]DS[dP]P))	%	1

I'm hoping you can list Hemolysis at 100 μg/ml for every compound here, please.
1. CCC[C@@H]1NC(=O)[C@H](CCN)NC(=O)[C@H](Cc2c[nH]c3ccccc23)NC(=O)[C@H](CCN)NC(=O)[C@@H](CCN)NC(=O)[C@H](CCCN)NC(=O)[C@H](CCN)NC(=O)[C@H](Cc2ccc(O)cc2)NC(=O)[C@H](CO)NC(=O)[C@H](Cc2c[nH]c3ccccc23)NC(=O)[C@@H]2CCCN2C(=O)[C@H]2CCCN2C(=O)[C@H](CO)NC(=O)[C@H](C)NC1=O [compound 71] (cyclo(WSY[Dab][Orn][dDab][Dab]W[Dab][Nva]AS[dP]P))
2. CC(C)C[C@@H]1NC(=O)[C@@H]2CCCN2C(=O)[C@H]2CCCN2C(=O)[C@H](CO)NC(=O)[C@H](C)NC(=O)[C@H](C2CCCCC2)NC(=O)[C@H](CCN)NC(=O)[C@H](Cc2c[nH]c3ccccc23)NC(=O)[C@H](CCN)NC(=O)[C@@H](CCN)NC(=O)[C@H](CCCN)NC(=O)[C@H](CCN)NC(=O)[C@H](Cc2ccc(O)cc2)NC(=O)[C@H](CO)NC1=O [compound 29] (cyclo(LSY[Dab][Orn][dDab][Dab]W[Dab][Chg]AS[dP]P))
3. CC(C)C[C@@H]1NC(=O)[C@@H]2[C@@H](O)CCN2C(=O)[C@H]2CCCN2C(=O)[C@H](CO)NC(=O)[C@H](C)NC(=O)[C@H](C(C)(C)C)NC(=O)[C@H](CCN)NC(=O)[C@H](Cc2c[nH]c3ccccc23)NC(=O)[C@H](CCN)NC(=O)[C@@H](CCN)NC(=O)[C@H](CCCN)NC(=O)[C@H](CCN)NC(=O)[C@H](Cc2ccc(O)cc2)NC(=O)[C@H](CO)NC1=O [compound 57] (cyclo(AS[dP][Pro(3S-OH)]LSY[Dab][Orn][dDab][Dab]W[Dab][Tle]))

Result:
[0, 6, 1]
